// reported Percentage increase of mass for each item listed
test: Absorption of carbon dioxide into amine compound: percentage increase of mass; format: physicochemical; conditions: amine left to stand in air at 23° C. and 50% RH for a week

| compound | valueUnit | Percentage increase of mass |
| --- | --- | --- |
| NCc1cccc(CN)c1 [MXDA, metaxylylenediamine] | % by mass | 24.1 |
| NCCN1CCNCC1 [AEP, N-(2-aminoethyl)piperazine] | % by mass | 43.7 |
| NCC1CCCC(CN)C1 (centres unmarked) [1,3-BAC, 1,3-bis(aminomethyl)cyclohexane] | % by mass | 25.9 |
| NC1CCC(CC2CCC(N)CC2)CC1 (centres unmarked) [PACM, 4,4′-methylenebis(cyclohexylamine)] | % by mass | 12.2 |
| CC1(C)CC(N)CC(C)(CN)C1 (centres unmarked) [IPDA, isophoronediamine] | % by mass | 23.5 |

Reference source: patent US20240301156A1
